B1: HDV Ribozyme (parent)
chain: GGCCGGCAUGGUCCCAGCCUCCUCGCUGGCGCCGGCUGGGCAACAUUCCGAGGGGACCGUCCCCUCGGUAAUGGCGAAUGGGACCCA

Variants of: B1
protocol.summary: self-cleavage, relative activity (ratio to wild type); higher = more cleavage; co-transcriptional
Use 0.4 as the dividing line for self-cleavage, with the line itself on the 1 side and lower values as 0.

GGCCGGCAUGGUCCCAGCCUCCUCGCGGGCGCCGGCUGGGCAACAUUCCGAGGGGACCGUCCCCUCGGUAAUGGCGAACGGGACCCA : 0
GGCCGGCAUGGUCCCAGCCUCCUCGCUGGCGCCGGCUGGACAACAUUCCUAGGGGACCGUCCCCUCGGUAAUGGCGAAUGGGACCCA : 1
GGCCGGCAUGGUCCCAGCCUCCUCGCUGGCGCCGGGUGGGCAACAUUCCAAGGGGACCGUCCCCUCGGUAAUGGCGAAUGGGACCCA : 0
GGCCGGCAUGGGCCCAGCCUCCUCGCUGCCGCCGGCUGGGCAACAUUCCGAGGGGACCGUCCCCUCGGUAAUGGCGAAUGGGACCCA : 0

# input for lookup
Dear colleague, could you confirm whether GGCCGGCAUGGUCCCAGCCUCCUCGCUGGCGCCGGCUGGGCAACAUUCCGAGGGGACCGUUCCCUCGGUAAUUGCGAAUGGGACCCA has self-cleavage at or above 0.4?
0
